Each item that follows carries a reported self-aminoacylation.
- Tested on: biotinyl-Ile-oxazolone
- protocol-summary: self-aminoacylation, catalytic enhancement (BIO) (fold over background); higher = more active; k-Seq, kA / k0A0; sequences stand for … in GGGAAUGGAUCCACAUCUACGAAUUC…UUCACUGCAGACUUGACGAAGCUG
Fewer inactive variants are shown than the library holds.

[
  {
    "sequence-record": "AUUCACCUAGGUAUUCGGGUG [Fam2.2 aminoacylation ribozyme variant]",
    "self-aminoacylation": 2.81
  },
  {
    "sequence-record": "AUUCAACUAAGUCAUCGGGUG [Fam2.2 aminoacylation ribozyme variant]",
    "self-aminoacylation": 4.92
  },
  {
    "sequence-record": "UAGUUUGCUAGUAGUCGCAAG [Fam3.1 aminoacylation ribozyme variant]",
    "self-aminoacylation": 1.09
  },
  {
    "sequence-record": "CUACUUCAAACAAUCGAUCGG [Fam1A.1 aminoacylation ribozyme variant]",
    "self-aminoacylation": 0.647
  },
  {
    "sequence-record": "CCACGCUUCAAGCAAUAGGUC [Fam1B.1 aminoacylation ribozyme variant]",
    "self-aminoacylation": 0.51
  },
  {
    "sequence-record": "GUUUACCUAGGUCAUCGGGUG [Fam2.2 aminoacylation ribozyme variant]",
    "self-aminoacylation": 16.2
  },
  {
    "sequence-record": "CCACACUCCAAGCAAUCGGCC [Fam1B.1 aminoacylation ribozyme variant]",
    "self-aminoacylation": 1.63
  },
  {
    "sequence-record": "AAUCACCUACGUCAUCGGGUG [Fam2.2 aminoacylation ribozyme variant]",
    "self-aminoacylation": 4.41
  },
  {
    "sequence-record": "ACUACCCUGCUCAUCGAGUGA [Fam2.1 aminoacylation ribozyme variant]",
    "self-aminoacylation": 1.37
  }
]

====

- Test system: biotinyl-Leu-oxazolone
- protocol-summary: self-aminoacylation, catalytic enhancement (BLO) (fold over background); higher = more active; k-Seq, kA / k0A0; sequences stand for … in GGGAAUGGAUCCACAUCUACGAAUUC…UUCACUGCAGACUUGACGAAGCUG
Fewer inactive variants are shown than the library holds.
Each item that follows carries a reported self-aminoacylation.
value-type: self-aminoacylation

[
  {
    "sequence-record": "CCAUUCUUCAAGCAAUCGGUC [Fam1B.1 aminoacylation ribozyme variant]",
    "data-value": 0.992
  },
  {
    "sequence-record": "UAGUUUGCUAAUAAUCGCAAG [Fam3.1 aminoacylation ribozyme variant]",
    "data-value": 0.887
  },
  {
    "sequence-record": "AUUACCCUGAUCUUCGAGUGA [Fam2.1 aminoacylation ribozyme variant]",
    "data-value": 5.04
  },
  {
    "sequence-record": "CCUCACUUCAAGCAGUCGGUC [Fam1B.1 aminoacylation ribozyme variant]",
    "data-value": 0.892
  },
  {
    "sequence-record": "AUUACCCUGGUGAUGGAGUGA [Fam2.1 aminoacylation ribozyme variant]",
    "data-value": 5.75
  },
  {
    "sequence-record": "CUACUUCAAACAAUAGGUCUU [Fam1A.1 aminoacylation ribozyme variant]",
    "data-value": 0.827
  },
  {
    "sequence-record": "CUACUUCAAAGUAUCGGUCUG [Fam1A.1 aminoacylation ribozyme variant]",
    "data-value": 0.941
  },
  {
    "sequence-record": "AAGUUAGCUAACAGUCGCAAG [Fam3.1 aminoacylation ribozyme variant]",
    "data-value": 1.66
  }
]
